Biological target: human Pim-1 (Homo sapiens (Human), UniProt P11309)
Sequence (P11309 whole entry): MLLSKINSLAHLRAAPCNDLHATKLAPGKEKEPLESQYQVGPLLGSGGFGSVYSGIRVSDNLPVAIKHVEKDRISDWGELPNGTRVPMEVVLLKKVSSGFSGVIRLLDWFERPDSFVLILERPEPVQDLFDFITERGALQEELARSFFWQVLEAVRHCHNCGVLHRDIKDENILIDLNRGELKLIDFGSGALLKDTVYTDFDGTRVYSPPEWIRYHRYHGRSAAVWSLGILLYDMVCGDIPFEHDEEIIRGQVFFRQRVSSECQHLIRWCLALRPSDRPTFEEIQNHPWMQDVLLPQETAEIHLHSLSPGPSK
Test: biochemical
Format: biochemical
Details: Ki converted from IC50; purified human Pim-1, Pim2tide substrate, ADP-Glo; read-out: hPim1 Ki
So I've got a bunch of compounds here, and I need their Ki values.
Give bare numbers, in nM.

Sample records with Ki:
| COMPOUND | OBSERVATION_TYPE | OBSERVED_VALUE |
| --- | --- | --- |
| O=C1NCCN(CC[C@H]2CC[C@@](O)(CCO)CC2)c2c1oc1ccc(C(F)(F)F)cc21 | Ki | 0.193 |
| O=C1NCCN(CC(F)(F)C2CC(O)(C(F)F)CCO2)c2c1oc1ccc(C(F)(F)F)cc21 (single isomer, unassigned) [Example 52] | Ki | 0.104 |
| O=C1NCCN(CC(F)(F)C2CC3(CCO2)OCCO3)c2c1oc1ccc(C(F)(F)F)cc21 (racemic) | Ki | 0.0715 |

Respectfully, I request Ki for each entry included below.
1. O=C1NCCN(CCC2CCC(F)(CO)CC2)c2c1oc1ccc(C(F)(F)F)cc21 (stereo not drawn)
2. CC1(O)CCOC(C(F)(F)CN2CCNC(=O)c3oc4ccc(C(F)(F)F)cc4c32)C1 (stereo not drawn) [Example 59]

**A:**
1. 0.13
2. 0.107

**Q:** Lab note: need Ki with human Pim-1 (Homo sapiens (Human), UniProt P11309) for entry CS(=O)(=O)C[C@@H]1CO[C@@H](CCN2CC3(CC3)NC(=O)c3oc4ccc(C(F)(F)F)cc4c32)CO1 , please look it up.
**A:** 0.164

###

Biological target: human Pim-1 (Homo sapiens (Human), UniProt P11309)
Test: biochemical
Assay type: biochemical
Conditions: Ki converted from IC50; purified human Pim-1, Pim2tide substrate, ADP-Glo; read-out: hPim1 Ki
Procedure: The human Pim-1 inhibitory activity of the test compounds was evaluated as follows. (1) Purification of Human Pim-1 […] The protein concentration of the human Pim-1 purified fraction was measured with Pierce 660 nm Protein Assay Reagent (Thermo Fisher Scientific, model number 22660). […] The His-Tag-added human Pim-1 was detected by Western blotting using a mouse anti-His monoclonal antibody (WAKO, model number 011-23091). […]
So I've got a bunch of molecules here, and I need their Ki values.
Give bare numbers, in nM.

| MOLECULE | Ki (nM) |
| --- | --- |
| O=C1NC2(CC2)CN(CC[C@@H]2CO[C@@H](CO)CO2)c2c1oc1ccc(C(F)(F)F)cc21 | 0.0929 |
| CC(C)(O)C1CCC(CCN2CCNC(=O)c3oc4ccc(C(F)(F)F)cc4c32)CC1 (stereo not shown) | 1.07 |
| O=C1NCCN(CCC2CCC(c3ncn[nH]3)CC2)c2c1oc1ccc(C(F)(F)F)cc21 (stereo not shown) | 0.607 |

**Q:** // returns reported Ki for input CC1(C)OCC(C(F)(F)CN2CCNC(=O)c3oc4ccc(C(F)(F)F)cc4c32)CO1
**A:** 1.3
